- test: NCI Yeast Anticancer Drug Screen. Data for the bub3 strain (AID 167)
- run.conditions: S. cerevisiae bub3 mutant strain, at 50.0 µM, active compounds read high
Compounds without any hit were thinned out: in the full panel of roughly 79,000, 15% have a hit.
Provide the reported growth inhibition of each item.
Give bare numbers, in %.

Some molecules with recorded growth inhibition:
molecule=Nc1cc(=O)[nH]c(N)n1 numeric_value=-5
molecule="COC(=O)c1cc2c(cc1CC(Cc1ccc3c(c1)CCCC3)C(=O)OC)CCCC2 (stereo not given)" numeric_value=-2.25
molecule=O=C1NC(=NC2CCCCC2)C2(CCN(CCCC3(c4ccc(F)cc4)OCCO3)CC2)N1c1ccccc1 numeric_value=-5
molecule=Cc1ccc(-c2nc(-c3nccc4ccccc34)oc2-c2ccccc2)cc1 numeric_value=-29.7

// input: 6 molecules below; output: growth inhibition for each
1. CCOC(=O)c1ccc(NCCCNc2ccc(C(=O)OCC)cc2)cc1
2. CC(=O)/C(C)=N/Nc1ccccc1
3. COc1ccccc1/C=N/Nc1nnc2c3ccccc3c3ncccc3c2n1
4. O=C(C[n+]1cccc(CO)c1)c1ccc(-c2ccc(C(=O)C[n+]3cccc(CO)c3)cc2)cc1
5. CC(C)(C)C1CCC2c3c([nH]c4ccccc34)C3C(=O)N(c4cc(Cl)ccc4Cl)C(=O)C3C2C1 (stereo not given)
6. O=C(O)/C=C/c1ccc(OCc2ccccc2)c(OCc2ccccc2)c1

output:
1: 4.7; 2: -5.7; 3: -8.55; 4: -1.7; 5: 6.3; 6: -8.85

Measured values drawn from PubChem BioAssay (NCI) for this set.
